# System: OVCAR-8 ovarian
# experimental protocol: NCI tumour cell line growth inhibition, 48 h
recorded endpoint: TGI

compound	TGI
C#CC(=O)Nc1cccc2c1cc(C)n2-c1nc2c(c(NCc3ccccc3)n1)CCCC2	0.779 µM
COc1ccc(CCN(CC(=O)N(CC(N)=O)C2CCC[C@@H]2OCc2ccccc2)C(=O)CN(C(=O)CN(CCc2ccc(Cl)cc2)C(=O)CN(C(=O)CN(C)Cc2ccccc2F)[C@H](C)C2CCCCC2)[C@H](C)C2CCCCC2)cc1OC (some centres undefined)	> 50 µM
COc1ccc2c(=O)cc(-c3ccc(OC)c(OC)c3OC)oc2c1	> 100 µM
CC(C)(C)c1cc(CCCCCCCC2(CCCCCCCc3cc(C(C)(C)C)cc(C(C)(C)C)c3)OC(COCCOCCCCCC#N)C(COCCOCCCCCC#N)O2)cc(C(C)(C)C)c1 (centres undefined)	> 100 µM
O=C(N/C(=C\c1cccc([N+](=O)[O-])c1)c1nc2ccccc2[nH]1)c1ccccc1	> 100 µM
N#CC(C#N)=C1CCOc2ccc(F)cc21	43.7 µM
COc1c(/C=C/C=O)cc2c(c1OC)OCO2	> 100 µM
COc1cc(-c2nc3sc(C)cn3c2/C=C2\C(=O)Nc3ccccc32)c(Br)c(OC)c1OC	> 100 µM

As a next step, examine the compound that follows.
// sample OCC[N+]12CCCN1CCC2 , its TGI was > 100 µM

* * *

# Test system: MCF7 breast
# experimental protocol: NCI tumour cell line growth inhibition, 48 h; in the data active means GI50 below about 0.43 µM; inactive means the rest
Hi there, use one of these labels in your reply, thanks! active, inactive

# count of solved cases: 4
structure	cat
O=c1c2ccccc2c(/C=N\NC2=NCCN2)c2oc3ccccc3n12	inactive
CC(C)(C)c1cc(/C=N/NC(=O)c2ccccc2NC(=O)c2cccs2)c(O)c(C(C)(C)C)c1	inactive
Cc1ccc(C=C2C(Cl)=C(Cl)C(Cl)=C2Cl)cc1	active
Cc1cnc2oc3ccc(O)cc3c2c1-c1ccccc1	inactive

Now look at this entry.
Prompt: How was COc1cc(CNCCN2C(=O)c3ccc4c5c(ccc(c35)C2=O)C(=O)N(CCNCc2cc(OC)c(OC)c(OC)c2)C4=O)cc(OC)c1OC classified in this test?
Completion: active

* * *

# Tested on: SW-620 colon
# experimental protocol: NCI tumour cell line growth inhibition, 48 h
recorded endpoint: TGI

compound	target	TGI
CC(=O)NC(Cc1ccccc1)NC(=O)O (configuration not stated)	SW-620 colon	> 100 µM
O=C1C=CC(=C(c2ccccc2)c2ccc(O)cc2)C=C1	SW-620 colon	90.9 µM
CC1(C)C2CCC1(C)C(OC(=O)/C=C/C(=O)OC1CC3CCC1(C)C3(C)C)C2 (configuration not stated)	SW-620 colon	> 100 µM
CCOC(=O)CC1(Cc2ccc(OCc3ccccc3)cc2)C(=O)OC(c2ccccc2)N1C(=O)c1ccccc1 (configuration not stated)	SW-620 colon	> 100 µM
COC(=O)c1cc2oc(/C=C3/SC(=S)N(N)C3=O)cc2n1Cc1ccccc1	SW-620 colon	> 29.5 µM
Cc1ccc(C=C2C(Cl)=C(Cl)C(Cl)=C2Cl)cc1	SW-620 colon	1.18 µM

TGI recorded for this compound, Cc1cc(C)nc(NS(=O)(=O)c2ccc(Nc3c4ccccc4nc4c(C(=O)NC(CO)(CO)CO)cccc34)cc2)n1 , is > 100 µM

compound O=C(N/C(=C\c1cccc([N+](=O)[O-])c1)c1nc2ccccc2[nH]1)c1ccccc1 , TGI observed: > 100 µM

# compound COc1ccc2c(C)c(Oc3c(Cl)c(Cl)c(O)c(C#N)c3C#N)oc2c1 ; its TGI = > 100 µM

* * *

# Tested on: SF-295 CNS
# experimental protocol: NCI tumour cell line growth inhibition, 48 h
Entries and their TGI values follow.

Take a look at these entries with their results.
structure	TGI
CCCCCCCCCCCCCC1=C(O)C(=O)C(CC2=C(O)C(=O)C(CCCCCCCCCCCCC)=C(O)C2=O)=C(O)C1=O	> 100 µM
COc1cc(-c2nc3sc(C)cn3c2/C=C2\C(=O)Nc3ccccc32)c(Br)c(OC)c1OC	40.7 µM

Now examine the next entry.
# TGI of CCOC(=O)Cc1nnc2n(-c3ccccc3)c(=O)c3ccccc3n12 = > 100 µM

* * *

# Tested on: NCI-H226 lung
# experimental protocol: NCI tumour cell line growth inhibition, 48 h
recorded endpoint: GI50

Before answering, review these 4 worked examples.
structure	target	recorded endpoint	reported result
O=c1c2ccccc2c(/C=N\NC2=NCCN2)c2oc3ccccc3n12	NCI-H226 lung	GI50	19.2 µM
Cc1ccc2cccc(OC(=O)Nc3cccc(C(F)(F)F)c3)c2n1	NCI-H226 lung	GI50	3.61 µM
CC[C@@]1(O)C(=O)OCc2c1cc1n(c2=O)Cc2cc3ccccc3nc2-1	NCI-H226 lung	GI50	0.0202 µM
COc1cc([N+](=O)[O-])c(OC)cc1-c1nc2sc(C)cn2c1/C(N)=N/C(=N)N	NCI-H226 lung	GI50	43.2 µM

Looking up Cc1ccc(C=C2C(Cl)=C(Cl)C(Cl)=C2Cl)cc1 , I see its GI50 listed as 1.49 µM

Entry N#Cc1c(NC(=O)c2ccc(F)cc2)sc2c1CCCC2 — recorded GI50 = > 25 µM

For O=Nc1c(-c2c(O)[nH]c3cc(Br)ccc23)[nH]c2ccccc12 the compound record lists GI50 as 0.932 µM

# compound CCN(CC)CC[n+]1ccc2c(C)c3[nH]c4ccc(O)cc4c3c(C)c2c1 ; its GI50 = 0.631 µM

Measured GI50, Oc1c(Cl)cc(Cl)cc1/C=N/Nc1nnc(N/N=C/c2cc(Cl)cc(Cl)c2O)c2ccccc12 : 0.402 µM

* * *

# System: KM12 colon
# experimental protocol: NCI tumour cell line growth inhibition, 48 h
recorded endpoint: GI50

molecule	recorded endpoint	reported result
COc1cc(/C=C2\CCC/C(=C\c3ccc(O)c(OC)c3)C2=O)ccc1O	GI50	1.25 µM
O=C(c1ccc(C(F)(F)F)c(Cl)c1)N(Cc1ccc(Cl)cc1)c1ccc(-c2cc(C(F)(F)F)[nH]n2)c(O)c1	GI50	0.951 µM
O=C1C(=C([O-])c2ccccc2)C(=O)c2ccccc21.O=C1C(=C([O-])c2ccccc2)C(=O)c2ccccc21.[Mn+2]	GI50	72.9 µM
C=CC(=O)N1C[C@@H]2CCOc3c(Cl)c(-c4c(O)cccc4F)c(F)c4ncnc(c34)N2C[C@H]1C	GI50	14.7 µM
COC(=O)c1cc2oc(/C=C3/SC(=S)N(N)C3=O)cc2n1Cc1ccccc1	GI50	6.05 µM

KM12 colon assay, molecule CC(C)(C)CC(C)(C)c1ccc(O)c(Cc2ccc(Cl)cc2Cl)c1 , recorded GI50 = 1.63 µM

Per the reported KM12 colon data, CCN(CC)CC[n+]1ccc2c(C)c3[nH]c4ccc(O)cc4c3c(C)c2c1 has GI50 of 3.72 µM

The reported GI50 value, KM12 colon, for COc1ccc(NC2=C(I)C(=O)c3ncccc3C2=O)cc1 reads 1.68 µM

Value sought: GI50, system KM12 colon, item Cc1cc(N2CCCCC2)nc(NC2CCCC(Nc3ccnc4cc(Cl)ccc34)C2)n1 (centres undefined) . Result: 1.79 µM

* * *

# System: CAKI-1 renal
# experimental protocol: NCI tumour cell line growth inhibition, 48 h
Measured TGI of individual entries
Numbers only here, please. The scale is µM.

Recorded TGI, per entry:
compound	target	recorded endpoint	unit annotation	reported result
Cn1c2c(c3ccccc31)CCN(CCCCN1CCN(c3ccccc3)CC1)C2=O	CAKI-1 renal	TGI	µM	98.5
C#CC(=O)Nc1cccc2c1cc(C)n2-c1nc2c(c(NCc3ccccc3)n1)CCCC2	CAKI-1 renal	TGI	µM	0.942
COc1ccc(C(=NN=C(N)N)c2ccc(OC)cc2)cc1	CAKI-1 renal	TGI	µM	21

Note: attention shifts to another entry.
TGI recorded for this compound, COC1=C(C)C(=O)c2c(c(CCCl)c3n2CCC3OC(C)=O)C1=O (stereo not given) , is 2.15

* * *

# System: OVCAR-8 ovarian
# experimental protocol: NCI tumour cell line growth inhibition, 48 h
recorded endpoint: TGI (µM)
Give just the numeric value; µM need not be written.

Below: 3 compounds and their reported TGI.
compound	unit annotation	TGI
CN(C)CCCSc1ccccc1NC1=C(Cl)C(=O)C(Nc2ccccc2SCCCN(C)C)=C(Cl)C1=O	µM	3.99
CCN1c2cc(Br)cc3[nH]c(=O)n(c23)CCC1C (centres undefined)	µM	30.9
CCOC(=O)C1=C(C)NC2=C(C(=O)N(c3ccccc3)C2c2ccccc2)C1c1ccccc1 (centres undefined)	µM	53.4

Briefly, TGI measured for Cc1cc2nc(C=C(C(F)(F)F)C(F)(F)F)sc2cc1C : 4.4

* * *

compounds and their reported GI50
# System: 786-0 renal
# experimental protocol: NCI tumour cell line growth inhibition, 48 h

Entry N#CC1=C(N)NC(=S)NC12Nc1ccccc1S2 (stereo unspecified) ; GI50 = > 100000 nM

Short answer for CC(C)(C)CC(C)(C)c1ccc(O)c(Cc2ccc(Cl)cc2Cl)c1 : GI50 was 1650 nM

Lab note: measured GI50 of O=C(O)c1cc(=O)cc(C(=O)O)o1 was > 100000 nM

Input O=Nc1c(-c2c(O)[nH]c3cc(Br)ccc23)[nH]c2ccccc12 . Output GI50: 1220 nM

// field: GI50; key: COc1ccc(NC2=C(I)C(=O)c3ncccc3C2=O)cc1 ; value = 1850 nM

Recorded GI50 (compound Cc1ccc(C=C2C(Cl)=C(Cl)C(Cl)=C2Cl)cc1 ): 721 nM

From: PubChem BioAssay (NCI)
